# PROTOCOL_NOTES: Cmax in beagle dog at 10 mg/kg, po administered via oral gavage by LC/MS analysis
# Type: ADME, organism-based, Canis lupus familiaris
# CONDITION_SET: in vivo
MEASURED_METRIC: Cmax (µM)
# unit: µM | format: bare number

The recorded Cmax for entry CCOC(=O)N1CCN(C(=O)[C@H](CCC(=O)O)NC(=O)c2cc(OC(C)(C)C(=O)OCC)c3ccc(C)cc3n2)CC1 equals 14

---

# ASSAY_TARGET: P2Y purinoceptor 12 (Homo sapiens)
# Sequence (Q9H244 whole entry): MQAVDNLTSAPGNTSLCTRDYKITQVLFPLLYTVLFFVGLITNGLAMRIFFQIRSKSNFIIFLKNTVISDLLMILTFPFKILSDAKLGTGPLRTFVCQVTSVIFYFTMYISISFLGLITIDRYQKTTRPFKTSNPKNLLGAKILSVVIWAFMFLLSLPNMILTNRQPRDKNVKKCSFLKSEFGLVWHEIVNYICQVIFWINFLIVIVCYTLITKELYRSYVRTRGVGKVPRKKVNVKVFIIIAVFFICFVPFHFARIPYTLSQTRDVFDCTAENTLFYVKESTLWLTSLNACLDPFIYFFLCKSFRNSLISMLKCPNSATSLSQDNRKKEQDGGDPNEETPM
# PROTOCOL_NOTES: Antagonist activity at P2Y12 receptor (unknown origin)
MEASURED_METRIC: pIC50
When answering, recall that pIC50 equals minus log10 of the concentration in mol/L, and write that number alone.

The recorded pIC50 for entry CCCSc1nc(N[C@@H]2C[C@H]2c2ccc(F)c(F)c2)c2nnn([C@@H]3C[C@H](OCCO)[C@@H](O)[C@H]3O)c2n1 equals 8.30
